methodSummary: Protein binding in human plasma
Assay type: ADME, cell-free
experimentalSetup: read-out: PPB
recordedEndpoint: fraction unbound
// print number alone

What measured fraction unbound goes with O=C(CCNC(=O)c1ccc(OC(F)(F)F)cc1)N[C@@H]1CCCc2ccccc21 ?
0.01

* * *

experimentalTarget: Dihydroorotate dehydrogenase (quinone), mitochondrial (Homo sapiens, UniProt Q02127)
Sequence (Q02127 whole entry): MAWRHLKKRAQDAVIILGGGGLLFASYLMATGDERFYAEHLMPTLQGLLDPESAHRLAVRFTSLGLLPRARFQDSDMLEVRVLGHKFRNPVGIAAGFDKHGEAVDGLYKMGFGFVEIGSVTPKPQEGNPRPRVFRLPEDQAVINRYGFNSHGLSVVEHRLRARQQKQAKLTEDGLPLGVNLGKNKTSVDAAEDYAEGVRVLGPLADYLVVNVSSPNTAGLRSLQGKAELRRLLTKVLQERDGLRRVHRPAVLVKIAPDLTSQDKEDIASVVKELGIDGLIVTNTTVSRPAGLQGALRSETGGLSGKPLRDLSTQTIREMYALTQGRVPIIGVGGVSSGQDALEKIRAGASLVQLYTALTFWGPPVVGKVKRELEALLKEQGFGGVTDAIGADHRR
methodSummary: Inhibition of human recombinant DHODH
Exercise: for every item that follows, state its recorded IC50.
Number plus unit, in that order.

Sample O=C(CCNC(=O)c1ccc(Cl)cc1)N[C@@H]1CCCc2ccccc21 — what was its IC50?
1.3 µM

What value of IC50 has been reported for the following compound? O=C(O)c1cccnc1Nc1cccc(C(F)(F)F)c1
17 µM

Fill in the blank: the reported IC50 of COc1ccc(Nc2ccccc2C(=O)O)cc1 is ____.
10 µM

Name the recorded IC50 for Cc1c(Nc2ncccc2C(=O)O)cccc1C(F)(F)F .
8 µM

Item O=C(CCNC(=O)c1ccc(F)cc1)N[C@@H]1CCCc2ccccc21 has what recorded IC50?
9.5 µM

Which IC50 value is on record for O=C(CCNC(=O)c1ccccc1)N[C@@H]1CCCc2ccccc21 ?
12.4 µM

* * *

experimentalTarget: Dihydroorotate dehydrogenase (quinone), mitochondrial (Homo sapiens, UniProt Q02127)
methodSummary: Inhibition of human recombinant DHODH
recordedEndpoint: IC50 (µM)
Field: numeric (µM). Do not append units.

Given the entry O=C(CCNC(=O)c1ccc(Cl)c(Cl)c1)N[C@@H]1CCCc2ccccc21 , report its measured IC50.
1.5

May I ask what IC50 has been recorded for O=C(CCNC(=O)c1ccc(C(F)(F)F)cc1)N[C@@H]1CCCc2ccccc21 ?
0.91

What does the data say about its IC50? Entry: O=C(CCNC(=O)c1ccc(OC(F)(F)F)cc1)N[C@@H]1CCCc2ccccc21
0.56

Dear colleague, I am looking for the recorded IC50 of the following compound: N#Cc1ccc(C(=O)NCCC(=O)N[C@@H]2CCCc3ccccc32)cc1
8.9

So what does the record say about IC50 for Cc1c(Cl)cccc1Nc1ncccc1C(=O)O ?
13

Give the measured IC50 of COc1ccc(C(=O)NCCC(=O)N[C@@H]2CCCc3ccccc32)cc1 .
3.6

Endpoint output: IC50 of O=C(O)c1cccnc1Nc1ccccc1 . Value?
17.4

* * *

Exercise: state measured pIC50 for each of the compounds provided.
experimentalTarget: UniProtKB Q02127
methodSummary: Inhibition of human recombinant DHODH
Remember the convention: pIC50 equals -log10 of concentration in molar.

Consider the compound O=C(O)c1cccnc1Nc1ccc(F)cc1 and give its measured pIC50.
5.55

Form field: reported pIC50 of O=C(CCNC(=O)c1cccc(Cl)c1)N[C@@H]1CCCc2ccccc21
5.13

Using the record for O=C(O)c1cccnc1Nc1ccc(Cl)cc1 , report its pIC50.
6.40

So what's the measured pIC50 for this one? O=C(O)c1ccccc1Nc1ccc(Cl)cc1
6.38

* * *

experimentalTarget: Dihydroorotate dehydrogenase (quinone), mitochondrial (Homo sapiens)
methodSummary: Inhibition of human recombinant DHODH
recordedEndpoint: pIC50
Convention used: pIC50 is expressed as -log10 of the molar concentration.

Any idea what pIC50 was measured for O=C(O)c1cccnc1Nc1ccc(OC(F)(F)F)cc1 ?
6.30

Need pIC50 of O=C(CCNC(=O)c1ccc2c(c1)OC(F)(F)O2)N[C@@H]1CCCc2ccccc21 , thanks.
5.57

Consider the molecule shown here: Cc1ccc(C(=O)NCCC(=O)N[C@@H]2CCCc3ccccc32)cc1 What is its recorded pIC50?
5.72
